# measuredTarget: UniProt P41595
# Sequence (P41595 whole entry): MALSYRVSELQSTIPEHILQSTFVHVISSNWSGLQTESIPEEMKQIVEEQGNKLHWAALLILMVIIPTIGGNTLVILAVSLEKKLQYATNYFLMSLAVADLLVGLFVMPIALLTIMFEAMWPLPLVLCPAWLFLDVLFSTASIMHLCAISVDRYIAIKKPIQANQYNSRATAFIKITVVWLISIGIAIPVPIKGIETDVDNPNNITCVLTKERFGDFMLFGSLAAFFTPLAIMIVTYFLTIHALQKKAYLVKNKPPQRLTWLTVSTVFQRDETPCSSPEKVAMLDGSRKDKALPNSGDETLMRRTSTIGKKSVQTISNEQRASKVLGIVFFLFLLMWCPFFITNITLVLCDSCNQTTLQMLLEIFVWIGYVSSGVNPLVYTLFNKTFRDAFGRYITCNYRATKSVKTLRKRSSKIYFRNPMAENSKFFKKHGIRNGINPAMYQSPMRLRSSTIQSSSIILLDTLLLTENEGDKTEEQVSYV
# Assay type: functional, cell-based
metricName: AC50

compound	measuredTarget	metricName	recordedValue
CCCCN1C[C@H](O)[C@@H](O)[C@H](O)[C@H]1CO	UniProt P41595	AC50	> 30 µM
O=C(O)CCCCCCNC1c2ccccc2CCc2ccccc21	UniProt P41595	AC50	> 30 µM
COc1ccc(CCNCC(O)COc2cccc(C)c2)cc1OC (stereo not given)	UniProt P41595	AC50	14 µM
CN(C)/N=N/c1[nH]cnc1C(N)=O	UniProt P41595	AC50	> 10 µM

Problem: Value lookup for AC50; key = NCC(CC(=O)O)c1ccc(Cl)cc1 (stereo not given)
Result: > 30 µM

Problem: Also, CCCCCCOc1ccccc1C(N)=O [EXALAMIDE] please.
Result: 1.1 µM

Problem: Subsequent entry: CCOC(=O)[C@H](CCc1ccccc1)N[C@@H](C)C(=O)N1[C@H](C(=O)O)C[C@@H]2CCC[C@@H]21
Result: > 10 µM

Problem: # repeat for CC(C)Cn1cnc2c(N)nc3ccccc3c21
Result: 13.8 µM

Problem: Next record, please: C[C@@H](O)[C@H]1C(=O)N2C(C(=O)O)=C(S[C@@H]3CN[C@H](C(=O)N(C)C)C3)[C@H](C)[C@H]12
Result: > 300 µM

Problem: Same read-out for CCCc1nc(C(C)(C)O)c(C(=O)OCc2oc(=O)oc2C)n1Cc1ccc(-c2ccccc2-c2nnn[nH]2)cc1 ?
Result: > 10 µM

###

Heads up, these molecules all have AC50 values measured for UniProtKB P21731.
Sequence (P21731 whole entry): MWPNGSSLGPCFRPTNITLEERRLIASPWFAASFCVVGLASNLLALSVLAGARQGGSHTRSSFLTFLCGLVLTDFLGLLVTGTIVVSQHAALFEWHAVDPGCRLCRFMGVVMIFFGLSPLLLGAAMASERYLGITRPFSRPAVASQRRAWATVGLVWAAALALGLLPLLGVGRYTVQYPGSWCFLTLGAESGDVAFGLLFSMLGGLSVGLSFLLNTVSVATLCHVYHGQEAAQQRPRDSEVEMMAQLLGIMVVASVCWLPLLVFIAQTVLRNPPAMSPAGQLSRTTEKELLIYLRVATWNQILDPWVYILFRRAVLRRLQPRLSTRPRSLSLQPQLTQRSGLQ

molecule	metricName	recordedValue
OC(CNCC(O)C1CCc2cc(F)ccc2O1)C1CCc2cc(F)ccc2O1 (centres undefined)	AC50	> 30 µM
O=C1Nc2ccc(Cl)cc2[C@@](C#CC2CC2)(C(F)(F)F)O1	AC50	> 30 µM
COc1cc2nc(N3CCN(C(=O)c4ccco4)CC3)nc(N)c2cc1OC	AC50	> 30 µM

Problem: // returns reported AC50 for input O=P1(NCCCl)OCCCN1CCCl (centres undefined) [IFOSFAMIDE]
Result: > 30 µM

Problem: Query c1ccc([C@H]2CN3CCSC3=N2)cc1 next
Result: > 30 µM

Problem: Next molecule: C[C@]1(O)CC[C@H]2[C@@H]3CCC4=CC(=O)CC[C@]4(C)[C@@]3(F)[C@@H](O)C[C@@]21C
Result: > 10 µM

Problem: Another molecule: CCC(C(=O)O)c1ccc(N2Cc3ccccc3C2=O)cc1 (centres undefined)
Result: > 30 µM

Problem: Now consider NCC(=O)CCC(=O)O .
Result: > 30 µM

Problem: Try this molecule too: CS(=O)(=O)c1ccc(C2=C(c3ccccc3)C(=O)OC2)cc1
Result: > 30 µM

Problem: Ok, now CN1CCC(=C2c3ccccc3CCc3sccc32)CC1
Result: > 30 µM

Problem: Similarly, CCCc1nc(C(C)(C)O)c(C(=O)OCc2oc(=O)oc2C)n1Cc1ccc(-c2ccccc2-c2nnn[nH]2)cc1 ?
Result: > 50 µM

Problem: Now consider COc1ccccc1N1CCN(CC(O)COc2cccc3ccccc23)CC1 (centres undefined) .
Result: > 30 µM

Problem: Quick one: CNC(C)CCC=C(C)C (centres undefined)
Result: > 30 µM
